System: HeLa
method_description: Antiproliferative activity against human HeLa cells after 72 hrs by MTT assay
Format: functional, cell-based
Item-by-item account of IC50
Value expressed in nM; do not type the unit.

[[record]]
compound = "C[C@]12CC[C@H]3[C@@H](CC[C@H]4C[C@@H](O)CC[C@@]43CO)[C@@]1(O)CC[C@@H]2C1=CC(=O)OC1 [COROGLAUCIGENIN]"
measure = "IC50"
numeric_readout = 4200

[[record]]
compound = "C[C@]12[C@H](O)C[C@H]3[C@@H](CC[C@H]4C[C@H]5O[C@@H]6O[C@H](CO)C[C@@H](O)[C@]6(O)O[C@@H]5C[C@@]43CO)[C@@]1(O)CC[C@@H]2C1=CC(=O)OC1 [GHALAKINOSIDE]"
measure = "IC50"
numeric_readout = 900

[[record]]
compound = "C[C@]12[C@H](O)C[C@H]3[C@@H](CC[C@H]4C[C@H]5O[C@@H]6O[C@H](CO)C[C@H](O)[C@]6(O)O[C@@H]5C[C@@]43C=O)[C@@]1(O)CC[C@@H]2C1=CC(=O)OC1"
measure = "IC50"
numeric_readout = 2000

[[record]]
compound = "C[C@@H]1C[C@@H](O[C@@H]2O[C@H](CO)[C@@H](O)[C@H](O)[C@H]2O)[C@]2(O)O[C@@H]3C[C@@]4(C=O)[C@@H](CC[C@@H]5[C@@H]4CC[C@]4(C)[C@@H](C6=CC(=O)OC6)CC[C@]54O)C[C@H]3O[C@@H]2O1"
measure = "IC50"
numeric_readout = 600


Reported IC50 for C[C@@H]1C[C@@H](O)[C@]2(O)O[C@@H]3C[C@@]4(C=O)[C@@H](CC[C@@H]5[C@@H]4CC[C@]4(C)[C@@H](C6=CC(=O)OC6)CC[C@]54O)C[C@H]3O[C@@H]2O1 [CALACTIN] was 200
